# STUDY SYSTEM: SST2 (Homo sapiens, UniProt P30874)
# Sequence (P30874 whole entry): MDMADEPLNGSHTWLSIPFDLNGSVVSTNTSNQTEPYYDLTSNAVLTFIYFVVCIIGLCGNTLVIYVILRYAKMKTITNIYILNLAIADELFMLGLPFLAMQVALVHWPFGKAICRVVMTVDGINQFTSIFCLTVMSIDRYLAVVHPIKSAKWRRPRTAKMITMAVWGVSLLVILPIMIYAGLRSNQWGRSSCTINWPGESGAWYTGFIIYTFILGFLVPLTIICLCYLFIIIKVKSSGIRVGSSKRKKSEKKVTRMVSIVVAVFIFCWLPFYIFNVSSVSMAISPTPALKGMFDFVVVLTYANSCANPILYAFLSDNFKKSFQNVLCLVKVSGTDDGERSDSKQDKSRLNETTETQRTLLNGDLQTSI
# TEST DESCRIPTION: Hit Hunter cAMP XS+ assay, SST2 activation via Gi (reduction of forskolin-stimulated cAMP)
# Assay type: cell-based
# SETTINGS: read-out: SST2 (EMax)
*1 amine or outer side, *2 acyl side, *3 side chain or, on linkers, in order; H or OH if unused. Where a SMILES comes first, the peptide text is derived from it. Side-chain parts run from the residue outwards. [ ]: non-standard residue; d: D form. The star is where a group is joined. Ala(piperidin-4-yl) = O=C([C@H](CC1CCN([*:3])CC1)N[*:1])[*:2]; dTrp(4-OMe) = COc1cccc2[nH]cc(C[C@@H](N)C(=O)O)c12; dTrp(4-Me) = Cc1cccc2[nH]cc(C[C@@H](N)C(=O)O)c12; Ala(piperazin-1-yl) = N[C@@H](CN1CCNCC1)C(=O)O; Phe(3-Br) = N[C@@H](Cc1cccc(Br)c1)C(=O)O; Phe(3-Cl) = N[C@@H](Cc1cccc(Cl)c1)C(=O)O; Phe(4-Cl) = N[C@@H](Cc1ccc(Cl)cc1)C(=O)O; Morpholine(3S-CO) = O=C(O)[C@@H]1COCCN1; Ethylenediamine = C(CN[*:2])N[*:1]; d(hPhe) = N[C@H](CCc1ccccc1)C(=O)O; Hyp = O=C(O)[C@@H]1C[C@@H](O)CN1; hPhe = N[C@@H](CCc1ccccc1)C(=O)O; 3Pal = N[C@@H](Cc1cccnc1)C(=O)O; Cyclohexylmethyl = C1CCC(C*)CC1; Tic = O=C(O)[C@@H]1Cc2ccccc2CN1; Benzyl(4-Cl) = Clc1ccc(C*)cc1; Phg = N[C@H](C(=O)O)c1ccccc1; Pip = O=C(O)[C@@H]1CCCCN1; CO = O=C([*:1])[*:2]; Bn = c1ccc(C*)cc1
ASSAY ENDPOINT: Emax (%)
Numbers only; they are read as %.

// worked examples, Emax included
COMPOUND | DISPLAY UNIT | Emax
COc1ccc(C[C@@H]2NC(=O)[C@H](Cc3ccc(OCc4ccccc4)cc3)NC(=O)[C@H](CC3CCNCC3)NC(=O)[C@@H](Cc3c[nH]c4ccccc34)NC(=O)[C@H](c3ccccc3)NC(=O)[C@@H]3C[C@@H](OC(=O)NCCN)CN3C2=O)cc1 [Example 9] (cyclo([Hyp]([CO-Ethylenediamine])[Phg][dW][Ala(piperidin-4-yl)]Y(Bn)Y(Me))) | % | 102
NCCNC(=O)O[C@@H]1C[C@H]2C(=O)N[C@@H](c3ccccc3)C(=O)N[C@H](Cc3c[nH]c4ccccc34)C(=O)N[C@@H](CC3CCNCC3)C(=O)N[C@@H](Cc3ccc(OCc4ccc(Cl)cc4)cc3)C(=O)N[C@@H](Cc3ccccc3)C(=O)N2C1 [Example 6] (cyclo(F[Hyp]([CO-Ethylenediamine])[Phg][dW][Ala(piperidin-4-yl)]Y(Benzyl(4-Cl)))) | % | 97.9
NCCNC(=O)O[C@@H]1C[C@H]2C(=O)N[C@@H](CCc3ccccc3)C(=O)N[C@H](Cc3c[nH]c4ccccc34)C(=O)N[C@@H](CC3CCNCC3)C(=O)N[C@@H](Cc3ccc(OCc4ccccc4)cc3)C(=O)N[C@@H](Cc3ccc(Cl)cc3)C(=O)N2C1 [Example 42] (cyclo([Hyp]([CO-Ethylenediamine])[hPhe][dW][Ala(piperidin-4-yl)]Y(Bn)[Phe(4-Cl)])) | % | 99.3

Name the recorded Emax for NCCNC(=O)O[C@@H]1C[C@H]2C(=O)N[C@@H](c3ccccc3)C(=O)N[C@H](Cc3c[nH]c4ccccc34)C(=O)N[C@@H](CC3CCNCC3)C(=O)N[C@@H](Cc3ccc(OCc4ccccc4)cc3)C(=O)N[C@@H](Cc3cccc(Br)c3)C(=O)N2C1 [Example 10] (cyclo([Hyp]([CO-Ethylenediamine])[Phg][dW][Ala(piperidin-4-yl)]Y(Bn)[Phe(3-Br)])) . 101

Name the reported Emax value associated with the compound Cc1cccc2[nH]cc(C[C@H]3NC(=O)[C@H](CCc4ccccc4)NC(=O)[C@@H]4C[C@@H](OC(=O)NCCN)CN4C(=O)[C@H](Cc4cccnc4)NC(=O)[C@H](Cc4ccc(OCc5ccccc5)cc4)NC(=O)[C@H](CC4CCNCC4)NC3=O)c12 [Example 60] (cyclo([3Pal][Hyp]([CO-Ethylenediamine])[hPhe][dTrp(4-Me)][Ala(piperidin-4-yl)]Y(Bn))) 99.8

Recorded Emax of NCCNC(=O)O[C@@H]1C[C@H]2C(=O)N[C@@H](c3ccccc3)C(=O)N[C@H](Cc3c[nH]c4ccccc34)C(=O)N[C@@H](CC3CCNCC3)C(=O)N[C@@H](Cc3ccc(OCc4ccccc4)cc3)C(=O)N[C@@H](Cc3cccc(Cl)c3)C(=O)N2C1 [Example 7] (cyclo([Hyp]([CO-Ethylenediamine])[Phg][dW][Ala(piperidin-4-yl)]Y(Bn)[Phe(3-Cl)])) , please. 99.2

Reported Emax for NCCNC(=O)O[C@@H]1C[C@H]2C(=O)N[C@@H](CCc3ccccc3)C(=O)N[C@H](Cc3c[nH]c4ccccc34)C(=O)N[C@@H](CN3CCNCC3)C(=O)N[C@@H](Cc3ccc(OCc4ccccc4)cc3)C(=O)N[C@@H](Cc3cccc(Cl)c3)C(=O)N2C1 [Example 48] (cyclo([Hyp]([CO-Ethylenediamine])[hPhe][dW][Ala(piperazin-1-yl)]Y(Bn)[Phe(3-Cl)])) : what is it? 100

# Emax lookup, item COc1cccc2[nH]cc(C[C@H]3NC(=O)[C@H](CCc4ccccc4)NC(=O)[C@@H]4COCCN4C(=O)[C@@H]4Cc5ccccc5CN4C(=O)[C@H](Cc4ccc(OCc5ccccc5)cc4)NC(=O)[C@H](CC4CCNCC4)NC3=O)c12 [Example 46] (cyclo([Tic][Morpholine(3S-CO)][hPhe][dTrp(4-OMe)][Ala(piperidin-4-yl)]Y(Bn))) 98.6

Looking for the measured Emax of NCCNC(=O)O[C@@H]1C[C@H]2C(=O)N[C@@H](CCc3ccccc3)C(=O)N[C@H](Cc3c[nH]c4ccccc34)C(=O)N[C@@H](CN3CCNCC3)C(=O)N[C@@H](Cc3ccc(OCc4ccccc4)cc3)C(=O)N3CCCC[C@H]3C(=O)N2C1 [Example 69] (cyclo([Hyp]([CO-Ethylenediamine])[hPhe][dW][Ala(piperazin-1-yl)]Y(Bn)[Pip])) , can you help? 69

Which Emax reading was recorded for the compound NCCNC(=O)O[C@@H]1C[C@H]2C(=O)N[C@@H](CCc3ccccc3)C(=O)N[C@H](Cc3c[nH]c4ccccc34)C(=O)N[C@@H](CN3CCNCC3)C(=O)N[C@@H](Cc3ccc(OCc4ccccc4)cc3)C(=O)N3Cc4ccccc4C[C@H]3C(=O)N2C1 [Example 26] (cyclo([Hyp]([CO-Ethylenediamine])[hPhe][dW][Ala(piperazin-1-yl)]Y(Bn)[Tic])) ? 66.6

Fill in: Emax of NCCNC(=O)O[C@@H]1C[C@H]2C(=O)N[C@H](CCc3ccccc3)C(=O)N[C@H](Cc3c[nH]c4ccccc34)C(=O)N[C@@H](CN3CCNCC3)C(=O)N[C@@H](Cc3ccc(OCC4CCCCC4)cc3)C(=O)N[C@@H](Cc3cccnc3)C(=O)N2C1 [Example 71] (cyclo([3Pal][Hyp]([CO-Ethylenediamine])[d(hPhe)][dW][Ala(piperazin-1-yl)]Y(Cyclohexylmethyl))) is ___ 52.8
